Each recorded value in this set is attributed to patent US5723462A.

Recorded pKi values for a group of compounds are listed next.
# measurementTarget: GABAa receptor
# measurementNotes: GABAa receptor binding assay ([3H]-Flumazenil, RO15-1788 displacement, rat cortical tissue)
# conditionDescription: 0.5 nM 3H-RO15-1788, 30 min at 4° C.
# Description: The pharmaceutical utility of compounds of this invention are indicated by the following assay for GABAa receptor binding activity. […] Incubations contain […] of tissue homogenate, […] of radioligand 0.5 nM (^3 H-RO15-1788 [^3 H-Flumazenil] specific activity 80 Ci/mmol), drug or blocker and buffer to a total volume of 500 ml. […] Filters are washed twice with fresh 0.05M Tris HCl buffer (pH 7.4 at 4° C.) and counted in a liquid scintillation counter. […]
pKi: −log10 of the molar value.
recordedMetric: pKi

>>> resultvalue("O=C(Nc1ccc2ccccc2n1)c1c[nH]c2c1C(=O)CCC2")
7.30
>>> resultvalue("Cc1cnc2nc(NC(=O)c3c[nH]c4c3C(=O)CCC4)ccc2c1")
8.52
>>> resultvalue("COc1ccc2ccc(NC(=O)c3c[nH]c4c3C(=O)CCC4)nc2n1")
7.18
>>> resultvalue("O=C(Nc1ccc2nccnc2c1)c1c[nH]c2c1C(=O)CCC2")
7.19
>>> resultvalue("COc1ccc(NC(=O)c2c[nH]c3c2C(=O)CCC3)cn1")
7.96
